Test system: Rattus norvegicus
Test: Antiarthritic activity in complete Freund's adjuvant-induced rat arthritis model assessed as reduction of paw volume in injected paw at 30 mg/kg, sc qd for 28 days
Format: functional
Conditions: 672 h, route subcutaneous
Record form. Attribute: inhibition in vivo at 30 mg/kg. Fill in for each entry.
One number for each entry, in %.

As a guide, the following entries are already answered.
For CCOP(=O)(OCC)C1(P(=O)(OCC)OCC)C(=S)c2ccccc2N=C1C , what is its reported inhibition in vivo at 30 mg/kg? 18

For CCOP1(=O)Nc2ccccc2C(S)=C1P(=O)(OCC)OCC (stereo not given) , what is its reported inhibition in vivo at 30 mg/kg? 14

Please report inhibition in vivo at 30 mg/kg for every entry that follows.
1. CCOP(=O)(OCC)C1(P(=O)(OCC)OCC)N=C(c2ccc(N(CC)CC)cc2)c2ccccc2C1=S
2. O=P(O)(O)C(Cl)(Cl)P(=O)(O)O [CLODRONIC ACID]

1. 16
2. 34

For CCOP(=O)(OCC)C1(P(=O)(OCC)OCC)Nc2ccccc2C1=S , what is its reported inhibition in vivo at 30 mg/kg? 11

###

Test system: Rattus norvegicus
Test: Antiarthritic activity in complete Freund's adjuvant-induced rat arthritis model assessed as reduction of paw volume in injected paw at 30 mg/kg, sc qd for 28 days
Type: functional
Conditions: 672 h, route subcutaneous
Reported Property: inhibition in vivo at 30 mg/kg (%)
One number for each entry, in %.

Any idea what inhibition in vivo at 30 mg/kg came out for CCOP(=O)(OCC)C1(P(=O)(OCC)OCC)C(=S)c2ccccc2N1C on Rattus norvegicus? 32

Any idea what inhibition in vivo at 30 mg/kg came out for CCOP(=O)(OCC)C1(P(=O)(OCC)OCC)C(=S)c2ccccc2N=C1c1ccccc1 on Rattus norvegicus? 30

Further cases:
Any idea what inhibition in vivo at 30 mg/kg came out for CCOP(=O)(OCC)C1=C(S)c2ccccc2N(C)P1(=O)OCC (stereo not drawn) on Rattus norvegicus? 35

###

System: Rattus norvegicus
Test: Antiarthritic activity in complete Freund's adjuvant-induced rat arthritis model assessed as reduction of paw volume in non-injected paw at 50 mg/kg, sc qd for 28 days
Assay type: functional
Settings: 672 h, route subcutaneous
Reported Property: inhibition in vivo at 50 mg/kg
Answer by giving the amount and then stating its unit.

For CCOP(=O)(OCC)C1(P(=O)(OCC)OCC)C(=S)c2ccccc2N=C1c1ccccc1 , what is its reported inhibition in vivo at 50 mg/kg? 70%

For CC1=Nc2ccc(Br)cc2C(=S)C1(P(=O)(O)O)P(=O)(O)O , what is its reported inhibition in vivo at 50 mg/kg? 12%

For CCN(CC)c1ccc(C2=NC(P(=O)(O)O)(P(=O)(O)O)C(=S)c3ccccc32)cc1 , what is its reported inhibition in vivo at 50 mg/kg? 10%

For CCOP1(=O)Nc2ccccc2C(S)=C1P(=O)(OCC)OCC (stereo not given) , what is its reported inhibition in vivo at 50 mg/kg? 75%

Further cases:
For CN1c2ccccc2C(=S)C1(P(=O)(O)O)P(=O)(O)O , what is its reported inhibition in vivo at 50 mg/kg? 18%
